# assayProtocol: growth inhibition, single agents and combos, LFS_MB_2R, cell-based, cisplatin combos, synergistic combos for chromothripsis tumors (AID 1671457);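 further: cells exposed to compound for four days before readout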
# experimentalConditions: LFS_MB_2R medulloblastoma cells, at 0.5 µM, stronger effect = higher value
Note to self: values exactly at -10% are 1. So inhibition at or above -10% is 1, below is 0.

Form field: inhibition at least -10%? Entry: Cc1cc(C)c(Nc2ccnc(Nc3ccc(C#N)cc3)n2)c(C)c1
0

Exam item: decide whether the reported inhibition for C[n+]1ccc(-c2c3nc(c(-c4cc[n+](C)cc4)c4ccc([nH]4)c(-c4cc[n+](C)cc4)c4nc(c(-c5cc[n+](C)cc5)c5ccc2[nH]5)C=C4)C=C3)cc1 is at least -10%.
0

Has CC1CN(c2c(F)c(N)c3c(=O)c(C(=O)O)cn(C4CC4)c3c2F)CC(C)N1 (stereo not given) a recorded inhibition greater than or equal to -10%?
1

Decide: is the reported value of inhibition for Nc1ncn(C2OC(CO)C(O)C2O)c(=O)n1 (stereo not given) equal to or greater than -10%?
1

Decide: inhibition of O=C(CCCCCCC(=O)Nc1ccc(I)cc1)NO >= -10%?
0
